Experiment: fission yeast growth modulation, primary screen, strain 972, OD600, 24 h, no modulator (AID 1090);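 further: basal condition with compound alone and no growth modifier present; test concentration not given here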
Details: S. pombe 972 growth, higher = more signal, called active from +8 up or from −8 down
Assign class by z-score: not lower than -1 means True; lower than -1 means False.

COCCOC(=O)N1C(=O)[C@@]2(c3cc(C#CCNC(N)=O)ccc31)[C@H](c1ccc(O)cc1)N1[C@H](c3ccccc3)[C@H](c3ccccc3)OC(=O)[C@H]1[C@@H]2C(N)=O ... True
C[C@@H]1ON(c2ccc(I)cc2)[C@H](c2ccc(OC(=O)OC(C)(C)C)cc2)[C@H]1C(=O)N1C(=O)OC[C@H]1Cc1ccccc1 ... False
COC(=O)[C@@]1(Cc2ccc(F)cc2)[C@H]2c3cc(C(=O)N4CCCC4)n(C)c3C[C@H]2CN1C(=O)c1ccccc1 ... True
COc1ccc(C(=O)Nc2cccc(CN3C(=O)[C@]4(O[C@H](CCn5cc([C@H](O)c6ccccc6)nn5)[C@@H]([Si](C)(C)c5ccc(OC)cc5)[C@@H]4C)c4ccccc43)c2)cc1 ... False
C=CCNC(=O)[C@@H]1[C@H]2C(=O)O[C@H](c3ccccc3)[C@H](c3ccccc3)N2[C@H](c2ccc(O)cc2)[C@@]12C(=O)N(C(=O)OCCOC)c1ccc(C#CCCO)cc12 ... True
CN1C(=O)[C@@H]2[C@@H](CC(COc3ccccc3)=C([C@H](O)CCc3ccccc3)[C@@H]2CO)C1=O ... False
C=CCNC(=O)[C@@H]1[C@H]2C(=O)O[C@H](c3ccccc3)[C@H](c3ccccc3)N2[C@H](c2ccc(O)cc2)[C@@]12C(=O)Nc1ccc(C#CCC(C(=O)OC)C(=O)OC)cc12 ... True
CN(C)CCCNC(=O)[C@@H]1c2ccccc2C(=O)N(C2CCCCC2)[C@H]1c1ccc(CO)cc1 ... False
COCCCNC(=O)[C@@H]1c2ccccc2C(=O)N(C2Cc3ccccc3C2)[C@H]1c1ccc(CO)cc1 ... True
COc1ccc([Si](C)(C)[C@H]2[C@H](CCO)O[C@@]3(C(=O)N(Cc4ccccc4)c4ccc(N5CCOC5=O)cc43)[C@@H]2C)cc1 ... True
COC(=O)[C@@]1(Cc2ccc(OC)cc2)[C@H]2c3cc(C(=O)N4CCCC4)n(Cc4ccc(OC(F)(F)F)cc4)c3C[C@H]2CN1C(=O)c1ccccc1 ... True
CCCCNC(=O)c1ccc(C#C[Si](C(C)C)(C(C)C)C(C)C)c(OC(C)=O)c1 ... False
C=CCC(OC(C)=O)[C@@H]1[C@@H](N(Cc2ccc(-c3cccc(C(F)(F)F)c3)o2)C(=O)Cc2ccc(OC)cc2)c2cc(OCCCO)ccc2N1C(=O)Cc1ccc2ccccc2c1 (stereo partly drawn) ... True
COc1cc(NN2C(C(O)C3CCCCC3)C=CC3C(=O)N(c4ccccc4)C(=O)C32)cc(OC)c1OC (stereo not drawn) ... True
O=C1C[C@@](C(=O)NCC(F)(F)F)(c2ccc([N+](=O)[O-])cc2)[C@@H](c2ccc(CO)cc2)N1CC12CC3CC(CC(C3)C1)C2 ... False
C#C[C@@H](CC)O[Si](C#CCCCC#N)(C(C)C)C(C)C ... False
C=CCN1C(=O)[C@]2(O[C@H](CCO)[C@@H]([Si](C)(C)c3ccc(OC)cc3)[C@@H]2C)c2cc(N3C(=O)COc4ccccc43)ccc21 ... True
CCOC(=O)C[C@H]1[C@H](OC(=O)c2ccccc2-c2ccccc2)[C@@H](NC(=O)c2ccc3ccccc3n2)c2cc(OCCCO)ccc2N1C(=O)c1ccccc1 ... True
CC(=O)NCCCC[C@@H]1NC(=O)[C@H]2C[C@@H](C(=O)NCCCCCNC(=O)CS)[C@@H](c3cccc(OCCO)c3)N2C1=O ... True
COCCOC(=O)N1C(=O)[C@@]2(c3cc(C#CCNC(N)=O)ccc31)[C@H](c1ccc(O)cc1)N1[C@H](c3ccccc3)[C@H](c3ccccc3)OC(=O)[C@H]1[C@@H]2C(=O)N1CCN(c2ncccn2)CC1 ... True
O=C(O)[C@H]1C[C@H]2C(=O)N[C@@H](Cc3ccccc3)C(=O)N2[C@H]1c1cccc(OCCO)c1 ... False
COCC(=C=CC[C@H](O)c1cccc(OCCO)c1)C[C@H](O)COCc1ccccc1 ... False
COc1ccc([Si](C)(C)[C@@H]2[C@@H](CCn3cc([C@H](O)c4ccccc4)nn3)O[C@]3(C(=O)N(Cc4cccc(N5C(=O)c6cccc7cccc5c67)c4)c4ccccc43)[C@H]2C)cc1 ... True
O=C1[C@@]23C=C(Br)[C@H](C[C@@H]2COC3)[C@@]12CO2 ... False
C=C(COC)C(=O)CC[C@H](OC(=O)c1cccnc1)c1ccc(CO)o1 ... True
CCOC(=O)C=Cc1cc(F)ccc1O ... False
O=C1N[C@@H](Cc2ccccc2)C(=O)N2[C@@H]1C[C@@H](C(=O)O)[C@H]2c1ccc(O)cc1 ... True
COC(=O)[C@@]1(Cc2ccccc2CN=[N+]=[N-])N=C(c2ccc(OCCCO)cc2)O[C@H]1c1ccccc1 ... False
